Measured EC50 by item
# measured-target: CLK2 kinase (Homo sapiens, UniProt P49760)
# Sequence (P49760 whole entry): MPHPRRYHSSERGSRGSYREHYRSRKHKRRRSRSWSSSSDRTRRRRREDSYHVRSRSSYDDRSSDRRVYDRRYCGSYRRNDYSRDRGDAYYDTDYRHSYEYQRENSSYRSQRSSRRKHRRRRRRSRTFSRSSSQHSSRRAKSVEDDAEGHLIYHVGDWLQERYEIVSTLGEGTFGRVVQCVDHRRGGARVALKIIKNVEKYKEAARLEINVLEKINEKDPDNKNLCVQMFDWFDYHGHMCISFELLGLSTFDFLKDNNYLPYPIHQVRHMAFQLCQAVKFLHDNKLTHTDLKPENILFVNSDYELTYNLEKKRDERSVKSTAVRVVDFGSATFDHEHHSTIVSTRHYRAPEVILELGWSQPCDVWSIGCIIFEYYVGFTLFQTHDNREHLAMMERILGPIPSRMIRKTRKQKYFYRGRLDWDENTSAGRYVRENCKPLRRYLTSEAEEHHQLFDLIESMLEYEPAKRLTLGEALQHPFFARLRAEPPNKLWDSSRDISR
# experimental-details: CLK2 kinase activity assay (Z-lyte FRET);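 note: FRET read-out as coumarin to fluorescein emission ratio, unphosphorylated peptide as 0% and phosphorylated peptide as 100% controls, duplicate reactions, non-linear regression fit of dose-response curves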
# experimental-setup: Z-lyte Ser/Thr 6 peptide, 60 μM ATP, 1 h at room temperature
Please reply with the bare figure in nM and do not write the unit itself.

As a guide, the following entries are already answered.
CC(C)N1CCC(Oc2cc(C(=O)Nc3cc4cc(-c5cnn6c5CCNC6)ccc4cn3)ccn2)CC1 [compound 575]	2
Fc1cccc(-c2nccc3[nH]c(-c4n[nH]c5ccc(-c6cncc(CN7CCCCC7)c6)nc45)cc23)c1 [compound 312]	4
CC(C)Nc1cncc(-c2ccc3[nH]nc(-c4cc5c(-c6cccnc6)cccc5[nH]4)c3c2)c1 [compound 359]	6
CN(C)Cc1cncc(-c2cnc3[nH]nc(-c4cc5c(-c6ccccc6F)cncc5[nH]4)c3c2)c1 [compound 336]	3
CN(C)Cc1cncc(-c2ccc3[nH]nc(-c4cc5c(N6CCCCC6)nccc5[nH]4)c3c2)c1 [compound 465]	2
O=C(Nc1cccnc1)c1n[nH]cc1C#Cc1cncc(OC2CCNCC2)c1 [compound 32]	38

Moving on to the next compound.
-- ask Return the recorded EC50 value; entry: CC(C)CC(=O)Nc1cncc(-c2ccc3[nH]nc(-c4nc5c(-c6cc(F)cc(CNS(C)(=O)=O)c6)cncc5[nH]4)c3c2)c1 [compound 292]
-- reply 9
